Assay: physchem
Details: water
Counter-ions that a name gives are not always drawn.
Reported endpoint: solubility

Compound	Reported endpoint	Result
N[C@@H](CCC(=O)N[C@@H](CS(=O)(=O)CCOP(=O)(N(CCCl)CCCl)N(CCCl)CCCl)C(=O)N[C@@H](C(=O)O)c1ccccc1)C(=O)O [canfosfamide hydrochloride]	solubility	~2000 µg/mL

---

Experiment: physchem
Details: citrate buffer, pH 5.5, aqueous buffer
Counter-ions that a name gives are not always drawn.
Reported endpoint: solubility (mg/mL)

Compound	Unit symbol	Numeric readout
N[C@@H](CCC(=O)N[C@@H](CS(=O)(=O)CCOP(=O)(N(CCCl)CCCl)N(CCCl)CCCl)C(=O)N[C@@H](C(=O)O)c1ccccc1)C(=O)O [canfosfamide hydrochloride]	mg/mL	174
